B1: PLD5 (parent)
chain: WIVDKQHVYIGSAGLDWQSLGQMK

variants of: B1; assay: protein stability index of a GFP-peptide fusion (GPS, HEK-293T) (PSI 1-6); higher = more stable; conditions: c terminus: a fixed tail appended;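 note: lentivirally expressed fusions sorted by FACS into six bins by GFP to DsRed ratio, PSI derived from sequencing read proportions per bin multiplied by bin number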
Mark criterion not met for protein stability index values under 2, and criterion met for everything at or above.

Check out these entries, answers already filled in.
WIVDKQNVYIGSAGLDWQSLGQMK [H7N] ... criterion not met
WIVDKQHVYIGSAGLDWQSLRQMK [G21R] ... criterion not met
WIVDKQHVYIGSAGLDWQSLGQPK [M23P] ... criterion not met
WIVDKQHVWIGSAGLDWQSLGQMK [Y9W] ... criterion not met
WIVDKQHVYAGSAGLDWQSLGQMK [I10A] ... criterion not met
WIVDKQHVYIGSAGLDHQSLGQMK [W17H] ... criterion met
WIVDKQHVYIGSAGLDWQSLGQMN [K24N] ... criterion met
WISDKQHVYIGSAGLDWQSLGQMK [V3S] ... criterion met

Is reported protein stability index greater than or equal to 2 here: WIVDKQHVYIGSAGLDWQSLGAMK [Q22A] criterion met

Is reported protein stability index greater than or equal to 2 here: WIVDKQHVYIGSAGLDWQSLTQMK [G21T] criterion not met

Is reported protein stability index greater than or equal to 2 here: WIVDKQHVYIGSALLDWQSLGQMK [G14L] criterion not met
